cell count by entry:
Assay: viability loss with induced miR-34 in A549 – imaging, A549 dox-inducible miR-34, nuclei and caspase counts, primary screen (AID 1347080)
Conditions: A549 miR-34 inducible, Hoechst nuclei count, 48 h; measured here: total cells without miR-34 induction

Known results for compounds:
CCC(=O)c1c(O)cc(O)cc1O = 8770
CC(=O)Oc1cccc2c1C(=O)c1c(OC(C)=O)cc(C(=O)O)cc1C2=O = 8950
Cc1cccc(C(=O)O)c1O = 9000
NCCCC(=O)O = 9160

// next item, cell count requested
Enquiry: Which cell count value belongs to CC[N+](C)(CC)CCOC(=O)C(O)(c1ccccc1)C1CCCCC1 (stereo not given) ?
Return: 9210

====

Assay: viability loss in pontine glioma line – cell-based, SU-DIPG-XIII, MIPE5.0, CellTiter-Glo, qHTS, dose response (AID 1347064);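 as to AC50: cells exposed to compound for 48 hours before the viability read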
Conditions: CellTiter-Glo ATP luminescence
Records with an inconclusive call do not appear. Active and inactive are the calls of the source. Cut-off not given; nearly all actives show AC50 up to about 23 µM.
Respond only with the outcome that fits, drawn from true = active, false = inactive

Answered examples (5):
CCCCOc1ccc(CC(=O)NO)cc1 = false
Oc1ccc(OCc2ccccc2)cc1 = false
Cc1cc2c(C(C)C)c(O)c(O)c(C=O)c2c(O)c1-c1c(C)cc2c(C(C)C)c(O)c(O)c(C=O)c2c1O = true
O=C(NC(Cc1cc(=O)[nH]c2ccccc12)C(=O)O)c1ccc(Cl)cc1 (stereo not drawn) = false
CN(C)CC/C=C1/c2ccccc2COc2ccc(CC(=O)O)cc21 = false

Enquiry: What call does the record list for Cc1cccc(N(C)C(=S)Oc2ccc3ccccc3c2)c1 ?
Return: false

Enquiry: What call does the record list for Cn1c(=O)c2c(ncn2CC(O)CO)n(C)c1=O (stereo not drawn) ?
Return: false

Enquiry: What call does the record list for NC(CO)C(=O)NNCc1ccc(O)c(O)c1O (stereo not drawn) ?
Return: false

Enquiry: What call does the record list for CC1(C)O[C@@H]2C[C@H]3[C@@H]4C[C@H](F)C5=CC(=O)C=C[C@]5(C)[C@@]4(F)[C@@H](O)C[C@]3(C)[C@]2(C(=O)CO)O1 ?
Return: false

Enquiry: What call does the record list for Nc1nnc(-c2cccc(Cl)c2Cl)c(N)n1 ?
Return: false

Enquiry: What call does the record list for O=P(O)(O)C(O)(Cc1cccnc1)P(=O)(O)O ?
Return: false

Enquiry: What call does the record list for Cc1nc2ccc(CN(C)c3ccc(C(=O)N[C@@H](CCC(=O)O)C(=O)O)s3)cc2c(=O)[nH]1 ?
Return: false

Enquiry: What call does the record list for CNC[C@H](O)[C@@H](O)[C@H](O)[C@H](O)CO ?
Return: false

====

Assay: Wnt pathway potentiators raising nuclear beta-catenin – imaging, WNT3A-conditioned medium, mouse C2C12, NPC library, primary screen (AID 1117326); also: reference of the scale not given here
Conditions: at 10 µM, stronger effect = higher value
nuclear beta-catenin stimulation by entry:
A number alone suffices; assume %.

Known results for molecules:
COc1cccc(OC)c1C(=O)N[C@@H]1C(=O)N2[C@@H]1SC(C)(C)[C@@H]2C(=O)O = -0.9
CCCCc1nc(Cl)c(CO)n1Cc1ccc(-c2ccccc2-c2nn[nH]n2)cc1 = 2.6
COc1ccc(CCN2CCC(Nc3nc4ccccc4n3Cc3ccc(F)cc3)CC2)cc1 = -1.3
COc1ccc2c(c1)c(CC(=O)OCC(=O)O)c(C)n2C(=O)c1ccc(Cl)cc1 = 1.8
Cn1nnc2c(C(N)=O)ncn2c1=O = -1.7
CCCCNc1ccc(C(=O)OCCN(C)C)cc1 = 9.2
CC(C)(C#N)c1cc(Cn2cncn2)cc(C(C)(C)C#N)c1 = 0.3
S=P(N1CC1)(N1CC1)N1CC1 = -0.7
Cc1cnc(C(=O)O)c[n+]1[O-] = 2.4
CN1CCN(C2=Nc3cc(F)ccc3Cc3ccccc32)CC1 = -1.1

Enquiry: Which nuclear beta-catenin stimulation value belongs to CN1CCC(=C2c3ccccc3C=Cc3ccccc32)CC1 ?
Return: 3.3

Enquiry: Which nuclear beta-catenin stimulation value belongs to CN(C)C(=O)Oc1cccc([N+](C)(C)C)c1 ?
Return: 1

Enquiry: Which nuclear beta-catenin stimulation value belongs to CCCCN(CCCC)CCCOC(=O)c1ccc(N)cc1 ?
Return: 0.5

Enquiry: Which nuclear beta-catenin stimulation value belongs to CN(C)CCc1c[nH]c2ccc(CS(=O)(=O)N3CCCC3)cc12 ?
Return: 1.7

Enquiry: Which nuclear beta-catenin stimulation value belongs to Cc1cc(=O)n(-c2ccccc2)n1C ?
Return: 1.1

Enquiry: Which nuclear beta-catenin stimulation value belongs to CC(=O)Oc1ccccc1C(=O)O ?
Return: -0.3

Enquiry: Which nuclear beta-catenin stimulation value belongs to CO[C@@]12[C@H](COC(N)=O)C3=C(C(=O)C(C)=C(N)C3=O)N1C[C@@H]1N[C@@H]12 ?
Return: 26.8

Enquiry: Which nuclear beta-catenin stimulation value belongs to Cc1nnc(SCC2=C(C(=O)O)N3C(=O)[C@@H](NC(=O)Cn4cnnn4)[C@H]3SC2)s1 ?
Return: 0.1
